Could you please report measured z-score for the items listed next?
method_notes: PSAC antagonists in infected red cells, primary screen, cell-based, P. falciparum Indochina, OD700, 2 h (AID 1155);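 also: lysis reports solute entry through the parasite surface anion channel PSAC; channel blockers reduce lysis of infected cells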
condition_set: P. falciparum Indochina infected erythrocytes, osmotic lysis OD700; higher = more signal, called active from +8 up or from −8 down
Kindly provide the number alone.

Notebook: CCCCO[C@H]1C[C@H]2C(Br)=C[C@@]1(CO)C(=O)[C@]21CO1 , z-score read as -1

// Cc1cc(C)c(C(O)C2C=CC3C(=O)N(C)C(=O)C3N2N2CCCCC2)c(C)c1 (configuration not stated) : z-score value = 0.827

Input CC(=O)NCCCC[C@@H]1NC(=O)[C@@H]2C[C@H](C(=O)NCCCCCCN(C)C)[C@H](c3ccc(O)cc3)N2C1=O . Output z-score: -1.12

The recorded z-score for entry C#CCNC(/C=C/c1ccccc1)CO (configuration not stated) equals 0.36

// O=C/C=C/c1ccc(/C=C/c2ccccc2)cc1 : z-score value = -0.941

z-score for C=CC[C@]1(C(=O)OC)N=C(c2ccc(OCCCO)cc2)O[C@H]1c1ccccc1CN=[N+]=[N-] is 4.18

get_value(item= NC(=O)NCC#Cc1ccc2c(c1)[C@]1(C(=O)N2)[C@H](C(N)=O)[C@H]2C(=O)O[C@H](c3ccccc3)[C@H](c3ccccc3)N2[C@@H]1c1ccccc1OCCO , readout=z-score) returns 0.0353

Entry COc1ccc([C@H]2C[C@H]3C(Br)=C[C@]2(OC)C(=O)[C@]32CO2)cc1 , z-score reported as 0.0516

Input CC(C)[Si]1(C(C)C)O[C@@H](c2ccccc2)c2cc(C3CC3)nc(-c3ccc(Oc4ccccc4)cc3)c21 . Output z-score: -0.0994

Record C=CC[C@@]1(C(=O)N2CCOCC2)N=C(c2ccc(OCCCO)cc2)O[C@@H]1c1ccccc1 . Reported z-score: 4.03

So, [N-]=[N+]=Nc1ccccc1C[C@@]1(C(=O)N2CCOCC2)N=C(c2ccc(OCCCO)cc2)O[C@@H]1c1ccccc1N=[N+]=[N-] ? Its z-score was 27.6

The value of z-score measured for the compound COCCOC(=O)N1C(=O)[C@@]2(c3cc(C#CCCO)ccc31)[C@H](c1ccc(OCCO)cc1)N1[C@H](c3ccccc3)[C@H](c3ccccc3)OC(=O)[C@H]1[C@@H]2C(=O)NC[C@H](O)c1ccccc1 turned out to be 1.1

The compound listed as COc1ccc([Si](C)(C)[C@@H]2[C@@H](CC(=O)N(CCO)Cc3ccccc3)O[C@]3(C(=O)N(Cc4cccc(N5CCC5=O)c4)c4ccccc43)[C@H]2C)cc1 shows z-score equal to 1.49

Input C=CCNC(=O)[C@H]1[C@@H]2C(=O)O[C@@H](c3ccccc3)[C@@H](c3ccccc3)N2[C@@H](c2ccccc2OCCO)[C@]12C(=O)N(C(=O)OCCOC)c1ccc(C#CCC(C(=O)OC)C(=O)OC)cc12 . Output z-score: -0.183

z-score reading for CO[C@H]1COC(=O)[C@@H](C)COC(=O)[C@H](Cc2ccccc2)NC(=O)CC=C[C@H]1C : -1.31

Briefly, z-score measured for C=CC[C@@]1(C(=O)NCC(O)CO)N=C(c2ccc(OCCCO)cc2)O[C@@H]1c1ccccc1CN=[N+]=[N-] (some centres not stated) : 9.51

C[C@@H]1CC[C@H]2C(=O)N3CCC[C@H]3C(=O)N2[C@H]1c1ccc(Br)cc1 has a reported z-score of -0.0391

Documented z-score of CCCN1C(=O)[C@@]2(CCS(=O)(=O)c3ccccc3)N=C(c3ccc(OCCCO)cc3)O[C@H]2c2ccccc21 : 32.4

Sample C[C@@H]1NC(=O)CC=C[C@@H](C)[C@@H]2C=C[C@H](O)[C@@H](COC(=O)[C@H](C)NC(=O)CC=C[C@@H](C)[C@@H]3C=C[C@H](O)[C@@H](COC1=O)O3)O2 ; z-score observed: -0.302

The recorded z-score for entry CCCNC(=O)[C@@H]1c2ccccc2C(=O)N(C2CCCCC2)[C@H]1c1ccc(CO)cc1 equals 0.867

For this compound ( O=C1OCC=C[C@H]2OC34C=CCN(Cc5ccccc5)C(=O)[C@H]3N(CCO)C(=O)[C@@H]4[C@@H]12 (some centres not stated) ), measured z-score is -0.44

Sure, the documented z-score for Cc1ccc(S[C@]2(C(=O)NC(C)C)CC(=O)N(C3Cc4ccccc4C3)[C@@H]2c2ccc(CO)cc2)cc1 is -0.862
